Entry source: patent US20250270343A1

- SYSTEM TESTED: T1, full-length untagged human GPNMB expressed on cells (human, UniProt Q14956 23-572)
- T1 sequence: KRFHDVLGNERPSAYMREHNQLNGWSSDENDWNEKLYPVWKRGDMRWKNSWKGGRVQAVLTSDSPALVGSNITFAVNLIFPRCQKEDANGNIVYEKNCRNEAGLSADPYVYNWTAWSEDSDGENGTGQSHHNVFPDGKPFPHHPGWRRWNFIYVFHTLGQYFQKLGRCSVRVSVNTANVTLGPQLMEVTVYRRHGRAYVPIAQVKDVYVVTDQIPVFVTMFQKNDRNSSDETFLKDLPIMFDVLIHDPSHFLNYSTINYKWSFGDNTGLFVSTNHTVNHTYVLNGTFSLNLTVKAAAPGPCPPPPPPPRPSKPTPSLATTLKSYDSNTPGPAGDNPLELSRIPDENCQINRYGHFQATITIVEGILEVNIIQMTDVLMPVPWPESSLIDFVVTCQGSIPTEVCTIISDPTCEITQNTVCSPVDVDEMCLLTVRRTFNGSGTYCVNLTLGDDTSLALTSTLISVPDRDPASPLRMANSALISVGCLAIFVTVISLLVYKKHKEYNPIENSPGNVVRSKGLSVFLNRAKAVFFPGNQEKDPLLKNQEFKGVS
- ASSAY TEXT: cell-based or functional assay
Please go through the items and note down their Fold Increase CD40 (max response at 1 µg/ml).
Numbers only, in fold.

Guide cases for Fold Increase CD40 (max response at 1 µg/ml), answers given:
- BINDER: "anti-GPNMB antibody GPN-83 (antibody, V domains shown) VH: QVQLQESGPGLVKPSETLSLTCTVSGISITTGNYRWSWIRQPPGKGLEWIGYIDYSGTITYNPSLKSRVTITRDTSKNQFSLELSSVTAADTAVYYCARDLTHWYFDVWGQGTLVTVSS VL: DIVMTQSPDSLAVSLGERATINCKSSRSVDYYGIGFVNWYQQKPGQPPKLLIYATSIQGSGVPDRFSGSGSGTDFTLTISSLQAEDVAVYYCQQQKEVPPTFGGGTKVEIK"
  UNITS LABEL: "fold"
  OBS VALUE: 2.1
- BINDER: "anti-GPNMB antibody GPN-93 (antibody, V domains shown) VH: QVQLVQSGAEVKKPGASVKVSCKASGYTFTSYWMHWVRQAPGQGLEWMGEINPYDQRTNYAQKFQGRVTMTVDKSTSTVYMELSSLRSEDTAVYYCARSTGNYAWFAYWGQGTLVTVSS VL: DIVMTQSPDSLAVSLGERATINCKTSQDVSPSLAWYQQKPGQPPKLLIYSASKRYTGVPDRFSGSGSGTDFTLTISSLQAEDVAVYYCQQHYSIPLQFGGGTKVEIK"
  UNITS LABEL: "fold"
  OBS VALUE: 1.87
- BINDER: "anti-GPNMB antibody GPN-86 (antibody, V domains shown) VH: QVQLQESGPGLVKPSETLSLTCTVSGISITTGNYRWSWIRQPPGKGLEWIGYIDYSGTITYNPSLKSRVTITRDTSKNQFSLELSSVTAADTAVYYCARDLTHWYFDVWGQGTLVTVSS VL: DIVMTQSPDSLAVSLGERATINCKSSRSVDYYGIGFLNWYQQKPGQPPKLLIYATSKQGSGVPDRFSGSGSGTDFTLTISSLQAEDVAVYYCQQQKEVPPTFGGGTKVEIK"
  UNITS LABEL: "fold"
  OBS VALUE: 2.15

Batch: Fold Increase CD40 (max response at 1 µg/ml) for all items listed.
1. anti-GPNMB antibody GPN-95 (antibody, V domains shown, also called PGN-95) VH: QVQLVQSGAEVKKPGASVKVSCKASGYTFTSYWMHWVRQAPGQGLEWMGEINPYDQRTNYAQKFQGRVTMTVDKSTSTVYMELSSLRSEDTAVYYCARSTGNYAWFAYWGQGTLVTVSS VL: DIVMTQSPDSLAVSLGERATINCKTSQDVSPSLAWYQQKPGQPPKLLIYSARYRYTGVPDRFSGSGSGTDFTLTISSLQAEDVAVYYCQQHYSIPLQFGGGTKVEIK
2. anti-GPNMB antibody GPN-98 (antibody, V domains shown) VH: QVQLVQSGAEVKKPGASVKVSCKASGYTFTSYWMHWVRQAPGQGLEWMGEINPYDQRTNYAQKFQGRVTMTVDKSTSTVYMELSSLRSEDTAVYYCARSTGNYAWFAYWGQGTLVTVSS VL: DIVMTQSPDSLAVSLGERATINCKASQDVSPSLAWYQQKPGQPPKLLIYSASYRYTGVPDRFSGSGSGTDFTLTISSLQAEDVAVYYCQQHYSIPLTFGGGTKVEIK
3. anti-GPNMB antibody GPN-90 (antibody, V domains shown) VH: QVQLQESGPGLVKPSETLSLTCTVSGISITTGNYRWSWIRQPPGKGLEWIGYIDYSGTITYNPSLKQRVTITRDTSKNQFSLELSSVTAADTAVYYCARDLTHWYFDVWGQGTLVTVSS VL: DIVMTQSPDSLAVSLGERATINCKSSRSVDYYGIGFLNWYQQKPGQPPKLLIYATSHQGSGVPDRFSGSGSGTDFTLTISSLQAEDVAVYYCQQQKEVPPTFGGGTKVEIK
4. anti-GPNMB antibody GPN-96 (antibody, V domains shown) VH: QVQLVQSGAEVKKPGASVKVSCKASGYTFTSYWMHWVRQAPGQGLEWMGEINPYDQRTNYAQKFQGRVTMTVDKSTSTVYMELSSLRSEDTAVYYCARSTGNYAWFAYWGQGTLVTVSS VL: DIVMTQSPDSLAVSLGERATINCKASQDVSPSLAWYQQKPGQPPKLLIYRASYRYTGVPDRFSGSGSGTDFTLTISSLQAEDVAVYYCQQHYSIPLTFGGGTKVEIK
5. anti-GPNMB antibody GPN-82 (antibody, V domains shown) VH: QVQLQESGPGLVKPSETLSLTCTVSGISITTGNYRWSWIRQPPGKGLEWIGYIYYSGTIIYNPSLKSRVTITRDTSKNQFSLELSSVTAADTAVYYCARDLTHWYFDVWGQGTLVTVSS VL: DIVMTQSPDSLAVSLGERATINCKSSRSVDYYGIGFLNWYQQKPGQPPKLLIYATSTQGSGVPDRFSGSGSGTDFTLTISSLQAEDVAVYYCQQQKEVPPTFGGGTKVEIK
6. anti-GPNMB antibody GPN-87 (antibody, V domains shown) VH: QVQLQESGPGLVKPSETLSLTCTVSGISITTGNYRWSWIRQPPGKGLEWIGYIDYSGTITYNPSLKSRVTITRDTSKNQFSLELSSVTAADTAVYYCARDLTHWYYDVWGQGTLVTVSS VL: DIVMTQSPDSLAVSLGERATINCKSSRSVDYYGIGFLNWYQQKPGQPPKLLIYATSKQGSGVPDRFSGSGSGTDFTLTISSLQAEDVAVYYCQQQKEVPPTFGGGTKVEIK

A:
1: 1.74; 2: 1.71; 3: 2.12; 4: 1.72; 5: 2.29; 6: 2.15

Batch: Fold Increase CD40 (max response at 1 µg/ml) for all items listed.
1. anti-GPNMB antibody GPN-85 (antibody, V domains shown) VH: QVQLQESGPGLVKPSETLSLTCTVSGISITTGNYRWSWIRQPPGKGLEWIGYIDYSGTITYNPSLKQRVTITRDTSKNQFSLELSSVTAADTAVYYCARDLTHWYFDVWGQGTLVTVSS VL: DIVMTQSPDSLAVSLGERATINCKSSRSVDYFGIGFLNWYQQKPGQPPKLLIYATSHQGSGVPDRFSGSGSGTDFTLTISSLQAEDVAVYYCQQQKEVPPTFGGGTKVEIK
2. anti-GPNMB antibody GPN-89 (antibody, V domains shown) VH: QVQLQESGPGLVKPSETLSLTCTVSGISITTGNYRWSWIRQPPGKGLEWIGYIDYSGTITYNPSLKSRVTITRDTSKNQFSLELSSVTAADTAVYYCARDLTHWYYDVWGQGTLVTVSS VL: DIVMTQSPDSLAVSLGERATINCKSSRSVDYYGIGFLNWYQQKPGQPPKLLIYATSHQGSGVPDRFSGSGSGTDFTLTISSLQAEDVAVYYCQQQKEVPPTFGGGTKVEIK

A:
[2.1, 2.12]
